# PROTOCOL_NOTES: Clinical trial: pharmacokinetics in patients
# Type: in vivo, human
# TEST_CONDITIONS: human, in vivo, iv, 2-hr i.v. infusion days 1 and 8 every 3 weeks, read-out: volume of distribution
EXPERIMENTAL_READOUT: Vd (L)

{"columns": ["SAMPLE_SMILES", "MEASURE_UNIT", "VALUE_REPORTED"],
 "data": [
  ["CC[C@@H]1C(=O)N(C)c2cnc(Nc3ccc(C(=O)N[C@H]4CC[C@H](N5CCN(CC6CC6)CC5)CC4)cc3OC)nc2N1C(C)C", "L", 4500]
]}

----------
# PROTOCOL_NOTES: Clinical trial: pharmacokinetics in patients
# Format: in vivo, human
# TEST_CONDITIONS: human, in vivo, iv, 2-hr i.v. infusion days 1 and 8 every 3 weeks
EXPERIMENTAL_READOUT: clearance (mL/min)

{"columns": ["COMPOUND", "EXPERIMENTAL_READOUT", "MEASURE_UNIT", "VALUE_REPORTED"],
 "data": [
  ["CC[C@@H]1C(=O)N(C)c2cnc(Nc3ccc(C(=O)N[C@H]4CC[C@H](N5CCN(CC6CC6)CC5)CC4)cc3OC)nc2N1C(C)C [Volasertib]", "clearance", "mL/min", 807]
]}

----------
# PROTOCOL_NOTES: Clinical trial: pharmacokinetics in patients
# Assay type: in vivo, human
# TEST_CONDITIONS: human, in vivo, iv, 2-hr i.v. infusion days 1 and 8 every 3 weeks, read-out: mean terminal elimination half-life (converted)

{"columns": ["SAMPLE_SMILES", "half-life (h)"],
 "data": [
  ["CC[C@@H]1C(=O)N(C)c2cnc(Nc3ccc(C(=O)N[C@H]4CC[C@H](N5CCN(CC6CC6)CC5)CC4)cc3OC)nc2N1C(C)C", 107]
]}
